Molecular target: T1, human B7-H4 (human, UniProt Q7Z7D3 29-282)
T1 construct: On stably transfected 293 cells (recombinant) or on MX-1 / SKBR3 tumor cells (endogenous); the cell is named under assay; also called huB7-H4; hB7-H4
T1 sequence: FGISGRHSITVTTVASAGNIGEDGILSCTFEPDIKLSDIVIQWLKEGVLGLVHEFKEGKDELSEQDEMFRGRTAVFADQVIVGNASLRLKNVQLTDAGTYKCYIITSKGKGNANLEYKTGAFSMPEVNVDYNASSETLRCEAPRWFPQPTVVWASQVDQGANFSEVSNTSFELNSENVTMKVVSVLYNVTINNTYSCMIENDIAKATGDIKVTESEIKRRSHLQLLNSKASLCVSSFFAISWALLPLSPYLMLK
Assay: Scatchard analysis, 125I-antibody radioligand cell binding on stably transfected 293 cells
observable: Kd (nM)
Enter your answer as a number in nM; do not include the unit.

[ask] What measured Kd goes with chimeric antibody ch9B9 (antibody, human IgG1, V domains shown, also called antibody 9B9) VH: QVQLQQSGAELMKPGASVKMSCKATGYTFSSYWIEWVKQRPGHGLEWIGEILPGTSITTYNAKFKVKATFTADTSSNTAYMQLSSLTSEDSAVYFCARYYFGSSSFYFDYWGQGTSLTVSS VL: QAVVTQESALTTSPGDTVTLTCRSSTGAVTTSNYANWVQEKPDHLFTGLIGGTNNRVPGVPARFSGSLIGDKAALTITGAQTEDEAMYFCALWYNNHWVFGGGTKLE ?
[reply] 6.6

[ask] Look up Kd for this binder: chimeric antibody ch1D11 (antibody, human IgG1, V domains shown, also called parental 1D11 antibody; antibody 1D11) VH: QVQLQQSGAELVRPGTSVKMSCKASGYTFTSYWIGWAKQRPGHGFEWIGDIYPGGGYTNYNEKFKGKATLTADKSSSTAYMQFSSLTSEDSAIYYCARLDGSSYRGAMDSWGQGTSITVSS VL: DIQMTQSPSSLSASLGGKVTITCKASQGFNKYVAWYQHKPGQCPRLLIHYTSTLQPGIPARFSGSGSGRDYSFSISNLEPEDSATYFCLQYGNLLYAFGGGTKLEIKR
[reply] 6.1

[ask] What measured Kd goes with chimeric antibody ch22C10 (antibody, human IgG1, V domains shown, also called ch2210; parental 22C10 antibody) VH: QVQLQQPGAELVKPGTSVKLSCKASGYTFTNFWIHWVIQRPGQGLEWIGEIDPSDSYTNYNQKFKGKATLTVDKSSNTAYMQLSSLTSEDSAVYYCSREITTVDYWGQGTTLTVSS VL: QIVLTQSPTIMSASPGEKVTLTCSATSSISYMHWYQQKPGTSPKGWIYDTSKLAHGVPARFSGSGSGTSYSLTISSMEAEDAATYYCHQRRSYPFTFGSGTKLEIK ?
[reply] 6.6

[ask] Could you tell me which Kd is on file for chimeric antibody ch32D6 (antibody, human IgG1, V domains shown, also called antibody 32D6) VH: EVQLQQSGPDLVKPGASVKISCKASGYSFTGYYIHWMKQSHGKSLEWIGRVNPNNGDPIYNQKFRGKAILTVDQSSNTAYMELRSLTSEASAVYYCARVLFYYGSPFAYWGQGTLVTVSA VL: DIVMTQSPSSLIVTAGEKVTMSCRSSQSLFDSGSQRNYLTWFHQKPGRPPKLLIYWASTRESGVPDRFTGSGSGTDFTLTISSVQTEDLAVYFCQNDYSFPFTFGSGTKLEEK ?
[reply] 4.8

Values compiled from patent US20160159910A1.
